Tested on: icilin-induced "wet-dog" shakes in Sprague Dawley rats
protocol-text: Reversal of icilin-induced "wet-dog" shakes in rats
Format: in vivo
cond: po; rat; 10 mg/kg p.o.; 1 h post-icilin
Where a name gives a salt, the structure may show the parent alone.
endpoint: inhibition in vivo at 10 mg/kg

Example entries and their recorded answers appear below.
[
  {
    "molecule": "FC(F)(F)c1cc(-c2ccccc2Cl)cc2nc(C3=NOC4(CCCCC4)C3)[nH]c12 [Cpd 30, hydrochloride]",
    "endpoint": "inhibition in vivo at 10 mg/kg",
    "result": "> 98%"
  },
  {
    "molecule": "FC(F)(F)Oc1ccccc1-c1cc(C(F)(F)F)c2[nH]c(C3=NOC4(CCCCC4)C3)nc2c1 [Cpd 51, hydrochloride]",
    "endpoint": "inhibition in vivo at 10 mg/kg",
    "result": "> 98%"
  },
  {
    "molecule": "Fc1cccc(OC(F)(F)F)c1-c1ccc2[nH]c(C3=NOC4(CCCCC4)C3)nc2c1 [Cpd 8, hydrochloride]",
    "endpoint": "inhibition in vivo at 10 mg/kg",
    "result": "> 96%"
  },
  {
    "molecule": "FC(F)(F)c1ccccc1-c1cc(Cl)c2[nH]c(C3=NOC4(CCCCC4)C3)nc2c1 [Cpd 16, hydrochloride]",
    "endpoint": "inhibition in vivo at 10 mg/kg",
    "result": "> 99%"
  },
  {
    "molecule": "Fc1ccccc1-c1cc(C(F)(F)F)c2[nH]c(C3=NOC4(CCCCC4)C3)nc2c1 [Cpd 53, hydrochloride]",
    "endpoint": "inhibition in vivo at 10 mg/kg",
    "result": "> 98%"
  },
  {
    "molecule": "FC(F)(F)c1ccccc1-c1cc(C(F)(F)F)c2[nH]c(C3=NOC4(CCCCC4)C3)nc2c1 [Cpd 27, hydrochloride]",
    "endpoint": "inhibition in vivo at 10 mg/kg",
    "result": "> 99%"
  },
  {
    "molecule": "CC1C(c2nc3cc(-c4ccccc4C(F)(F)F)cc(C(F)(F)F)c3[nH]2)=NOC12CCCCC2 (centres unmarked) [Cpd 28, hydrochloride]",
    "endpoint": "inhibition in vivo at 10 mg/kg",
    "result": "30%"
  }
]

Proceeding to the next molecule to report its inhibition in vivo at 10 mg/kg.
## Input Reported inhibition in vivo at 10 mg/kg for icilin-induced "wet-dog" shakes in Sprague Dawley rats, given FC(F)(F)Oc1ccccc1-c1ccc2[nH]c(C3=NOC4(CCCCC4)C3)nc2c1 [Cpd 7, hydrochloride] ?
## Output > 96%

====

assay-target: canine TRPM8 (Canis lupus familiaris)
Construct: expressed in transfected cells
protocol-text: In vitro canine TRPM8 functional assay (icilin-induced intracellular Ca2+, FLIPR/FDSS)
Type: cell-based
cond: 0.200 μM compound; HEK293 cells stably expressing canine TRPM8; icilin challenge (~80% maximal response); read-out: % Inh. @ 0.200 μM
Structures can show the parent of a compound that is named as a salt.
endpoint: inhibition at 0.2 µM (%)
Please reply with the bare figure in % and do not write the unit itself.

[
  {
    "compound": "FC(F)(F)Oc1ccccc1-c1ccc2[nH]c(C3=NCC4(CCCCC4)O3)nc2c1 [Cpd 3]",
    "unit-descriptor": "%",
    "inhibition at 0.2 µM": 60
  },
  {
    "compound": "FC(F)(F)c1ccccc1-c1cc2nc(C3=NOC4(CCCCC4)C3)[nH]c2cn1 [Cpd 57, hydrochloride]",
    "unit-descriptor": "%",
    "inhibition at 0.2 µM": 102
  },
  {
    "compound": "Fc1cccc(F)c1-c1ccc2[nH]c(C3=NOC4(CCCCC4)C3)nc2c1 [Cpd 26, trifluoroacetic acid salt]",
    "unit-descriptor": "%",
    "inhibition at 0.2 µM": 100
  }
]

Proceeding to the next compound to report its inhibition at 0.2 µM.
## Input Return reported inhibition at 0.2 µM; argument: CC1(C)CCC2(CC1)CC(c1nc3cc(-c4ccccc4Cl)ccc3[nH]1)=NO2 [Cpd 37, hydrochloride]
## Output 99

====

assay-target: canine TRPM8 (Canis lupus familiaris)
protocol-text: In vitro canine TRPM8 functional assay (icilin-induced intracellular Ca2+, FLIPR/FDSS)
cond: HEK293 cells stably expressing canine TRPM8; icilin challenge; eight-point dose-response
Structures can show the parent of a compound that is named as a salt.
Please assign false (0) whenever IC50 is at or above 5 nM, and true (1) whenever it is below.

Sample answers from the record:
[
  {
    "compound": "FC(F)(F)c1ccccc1-c1ccc2[nH]c(C3=NOC4(CCCCC4)C3)nc2n1 [Cpd 56, hydrochloride]",
    "assigned-category": "true (1)"
  },
  {
    "compound": "CC(C)(O)CCc1cc(-c2ccccc2C(F)(F)F)cc2nc(C3=NOC4(CCCCC4)C3)[nH]c12 [Cpd 43]",
    "assigned-category": "true (1)"
  },
  {
    "compound": "FC(F)(F)Oc1ccccc1-c1cc(Cl)c2[nH]c(C3=NOC4(CCCCC4)C3)nc2c1 [Cpd 50, methanesulfonate]",
    "assigned-category": "true (1)"
  },
  {
    "compound": "CC1(C)CCC2(CC1)CC(c1nc3cc(-c4ccccc4C(F)(F)F)cc(C(F)(F)F)c3[nH]1)=NO2 [Cpd 39, hydrochloride]",
    "assigned-category": "false (0)"
  },
  {
    "compound": "Cc1cc(-c2c(F)cccc2F)cc2nc(C3=NOC4(CCCCC4)C3)[nH]c12 [Cpd 48, hydrochloride]",
    "assigned-category": "true (1)"
  }
]

## Input Please check: IC50 for Fc1cccc(F)c1-c1ccc2[nH]c(C3=NOC4(CCOCC4)C3)nc2c1 [Cpd 38, hydrochloride] , strictly under 5 nM or not?
## Output false (0)

## Input Please check: IC50 for N#Cc1cc(-c2ccccc2C(F)(F)F)cc2nc(C3=NOC4(CCOCC4)C3)[nH]c12 [Cpd 35, hydrochloride] , strictly under 5 nM or not?
## Output false (0)

## Input Please check: IC50 for Clc1ccccc1-c1ccc2[nH]c(C3=NOC4(CCOCC4)C3)nc2c1 [Cpd 40, hydrochloride] , strictly under 5 nM or not?
## Output false (0)

## Input Please check: IC50 for CC1(C)CCC2(CC1)CC(c1nc3cc(-c4ccccc4Cl)ccc3[nH]1)=NO2 [Cpd 37, hydrochloride] , strictly under 5 nM or not?
## Output false (0)

====

assay-target: canine TRPM8 (Canis lupus familiaris, UniProt Q1A7N1)
Construct: expressed in transfected cells
Sequence (Q1A7N1 1-1104): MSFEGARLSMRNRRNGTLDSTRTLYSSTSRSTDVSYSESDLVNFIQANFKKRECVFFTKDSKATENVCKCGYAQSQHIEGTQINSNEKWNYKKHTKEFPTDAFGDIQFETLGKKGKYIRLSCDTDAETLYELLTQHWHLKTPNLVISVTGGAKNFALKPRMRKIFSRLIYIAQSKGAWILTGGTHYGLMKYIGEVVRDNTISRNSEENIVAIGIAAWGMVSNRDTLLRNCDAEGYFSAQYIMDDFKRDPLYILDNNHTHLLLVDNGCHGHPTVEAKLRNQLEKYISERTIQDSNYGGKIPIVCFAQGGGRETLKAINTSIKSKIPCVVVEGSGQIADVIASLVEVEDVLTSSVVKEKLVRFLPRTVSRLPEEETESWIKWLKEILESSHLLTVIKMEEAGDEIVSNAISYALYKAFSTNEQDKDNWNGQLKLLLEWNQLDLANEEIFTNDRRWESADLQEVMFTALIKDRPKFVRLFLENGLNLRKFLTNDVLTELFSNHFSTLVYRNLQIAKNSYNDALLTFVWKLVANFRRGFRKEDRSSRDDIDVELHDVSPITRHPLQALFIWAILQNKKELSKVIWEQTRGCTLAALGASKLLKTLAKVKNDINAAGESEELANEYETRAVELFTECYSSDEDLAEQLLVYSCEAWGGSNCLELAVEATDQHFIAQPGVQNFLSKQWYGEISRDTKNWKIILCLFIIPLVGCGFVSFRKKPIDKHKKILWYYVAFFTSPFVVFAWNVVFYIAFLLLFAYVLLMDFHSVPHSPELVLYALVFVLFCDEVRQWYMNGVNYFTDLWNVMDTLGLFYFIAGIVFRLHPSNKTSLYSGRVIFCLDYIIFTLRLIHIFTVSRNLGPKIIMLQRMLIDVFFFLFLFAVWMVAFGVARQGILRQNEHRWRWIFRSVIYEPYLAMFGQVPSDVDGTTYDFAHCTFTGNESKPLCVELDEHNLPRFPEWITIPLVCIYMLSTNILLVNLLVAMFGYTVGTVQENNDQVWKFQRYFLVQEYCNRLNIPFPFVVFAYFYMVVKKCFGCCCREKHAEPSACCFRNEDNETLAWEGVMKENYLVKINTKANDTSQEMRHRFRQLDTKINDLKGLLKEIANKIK
protocol-text: In vitro canine TRPM8 functional assay (icilin-induced intracellular Ca2+, FLIPR/FDSS);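 note: intracellular Ca2+ tracked with a Ca2+-sensitive fluorescent dye, compound applied 5 min before icilin was added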
Type: cell-based
cond: 0.200 μM compound; HEK293 cells stably expressing canine TRPM8; icilin challenge (~80% maximal response); read-out: % Inh. @ 0.200 μM
Where a name gives a salt, the structure may show the parent alone.
Overview of recorded inhibition at 0.2 µM for various compounds
Please reply with the bare figure in % and do not write the unit itself.

Example entries and their recorded answers appear below.
[
  {
    "compound": "FC(F)(F)c1ccccc1-c1cc(C(F)(F)F)c2[nH]c(C3=NOC4(CCCCC4)C3)nc2c1 [Cpd 27, hydrochloride]",
    "inhibition at 0.2 µM [%]": 100
  },
  {
    "compound": "N#Cc1cc(-c2ccccc2C(F)(F)F)cc2nc(C3=NOC4(CCOCC4)C3)[nH]c12 [Cpd 35, hydrochloride]",
    "inhibition at 0.2 µM [%]": 100
  }
]

## Input Reported inhibition at 0.2 µM for canine TRPM8 (Canis lupus familiaris, UniProt Q1A7N1), given CC1C(c2nc3cc(-c4ccccc4C(F)(F)F)cc(C(F)(F)F)c3[nH]2)=NOC12CCCCC2 (stereo not shown) [Cpd 28, hydrochloride] ?
## Output 101

## Input Reported inhibition at 0.2 µM for canine TRPM8 (Canis lupus familiaris, UniProt Q1A7N1), given "OC/C=C\c1cc(-c2ccccc2C(F)(F)F)cc2nc(C3=NOC4(CCCCC4)C3)[nH]c12" ?
## Output 100

## Input Reported inhibition at 0.2 µM for canine TRPM8 (Canis lupus familiaris, UniProt Q1A7N1), given "FC(F)(F)Cc1ccccc1-c1ccc2[nH]c(C3=NOC4(CCCCC4)C3)nc2c1" ?
## Output 102

## Input Reported inhibition at 0.2 µM for canine TRPM8 (Canis lupus familiaris, UniProt Q1A7N1), given FC(F)(F)c1ccccc1-c1ccc2[nH]c(C3=NOC4(CCCCC4)C3)nc2n1 [Cpd 56, hydrochloride] ?
## Output 101

## Input Reported inhibition at 0.2 µM for canine TRPM8 (Canis lupus familiaris, UniProt Q1A7N1), given COCCCc1cc(-c2ccccc2C(F)(F)F)cc2nc(C3=NOC4(CCCCC4)C3)[nH]c12 [Cpd 52, hydrochloride] ?
## Output 97
